Molecular target: Calcium/calmodulin-dependent protein kinase type II subunit gamma (Homo sapiens)
Conditions: at 1 µM
Quick reference: residual activity of the listed items.
Answer with the figure and its unit, nothing else.

Here are 5 compounds together with their reported answers.
{"line_notation": "CNc1cc2c(Nc3cccc(Br)c3)ncnc2cn1", "residual activity": "93%"}
{"line_notation": "N#CC(C#N)=C(N)/C(C#N)=C/c1ccc(O)cc1", "residual activity": "116%"}
{"line_notation": "COc1cc2ncnc(N3CCN(C(=O)Nc4ccc(Oc5ccccc5)cc4)CC3)c2cc1OC", "residual activity": "111%"}
{"line_notation": "CC(=O)O/N=C1\\C(=C2\\C(=O)Nc3cc(Br)ccc32)Nc2ccccc21", "residual activity": "23%"}
{"line_notation": "CCN(CC)CCCCN1c2ccccc2Oc2ccc(Cl)cc21", "residual activity": "111%"}

Shifting focus to the compound that follows.
[Q] Given CC#CC(=O)Nc1cc2c(Nc3ccc(F)c(Cl)c3)ncnc2cn1 , respond with its residual activity.
[A] 108%
